Assay: protein stability index of a GFP-peptide fusion (yeast GPS) (PSI 1-4); higher = more stable; sorted into four equal gates, so the index is relative within each strain
Settings: pdr5∆
Note: every record was labeled by where its protein stability index sits among low bin (below 2), mid bin (2 to below 3), high bin (3 or more)

input: Could you tell me which band FPGDSFPVDPTTPVKLG [RRP40] belongs to?
output: mid bin

input: Could you tell me which band VNITKFSKFERSKSSHK [SKI6] belongs to?
output: mid bin

input: Could you tell me which band GIIVAVDSRATAGNWVA [PRE2] belongs to?
output: low bin

input: Could you tell me which band ILKEEFPKIDSLAQNDC [RPN5] belongs to?
output: high bin

input: Could you tell me which band HVPEKKSTDLTPKGNES [MTR3] belongs to?
output: mid bin

input: Could you tell me which band NVTQNEQQWITRAQYLA [SRP68] belongs to?
output: low bin

input: Could you tell me which band HGYFLQDKEKIDNLKDT [ITC1] belongs to?
output: high bin

input: Could you tell me which band ATPQDAQFYLGKRIAYV [RPL33A] belongs to?
output: mid bin

input: Could you tell me which band LESADKQLEKRDYQRIN [POP4] belongs to?
output: mid bin

input: Could you tell me which band LSEEETLLVIRRLHKVL [SNF2] belongs to?
output: mid bin

input: Could you tell me which band LRHMPLASIPDIFITPT [SSN2] belongs to?
output: low bin

input: Could you tell me which band HDELIDSIPRDVAYLLK [YGL172W/NUP49] belongs to?
output: mid bin

input: Could you tell me which band GVITVHNVFSKEQTIQL [RPN14] belongs to?
output: mid bin

input: Could you tell me which band MVSTPELKKYMDKKILL [SMX2] belongs to?
output: high bin

input: Could you tell me which band KPFLKGLVNHRVGVKLK [SMX3] belongs to?
output: mid bin

input: Could you tell me which band IFTDFLPSSNGSSRIIA [RRP42] belongs to?
output: mid bin

input: Could you tell me which band LSDYIPGPYPNEQAARA [CYT1] belongs to?
output: mid bin

input: Could you tell me which band IPRTFRTPVPSTLMPGG [SNF5] belongs to?
output: mid bin

input: Could you tell me which band VPQGKIVALTNAKDKER [SMC3] belongs to?
output: mid bin

input: Could you tell me which band GVYKRDNRTKSTTIKNI [SMC4] belongs to?
output: low bin

input: Could you tell me which band QKKRVVDPFTRKEWFDI [RPS1A] belongs to?
output: high bin

input: Could you tell me which band VGVIIFILTIATAFLGY [COB] belongs to?
output: low bin

input: Could you tell me which band TTIGDTTDKNTTDDKSM [BRN1] belongs to?
output: high bin

input: Could you tell me which band IQVLTEASSLGYLDDSE [IRR1] belongs to?
output: low bin

input: Could you tell me which band QFVDMVLPNTALKTSIQ [FAS1] belongs to?
output: low bin

input: Could you tell me which band HRSKKDQDQYLEIAKDF [IRR1] belongs to?
output: high bin

* * *

Experiment: protein stability index of a GFP-peptide fusion (yeast GPS) (PSI 1-4); higher = more stable; sorted into four equal gates, so the index is relative within each strain
Conditions: pdr5∆
Class Criterion met: protein stability index at least 2. Class Criterion not met: protein stability index below 2.

input: Does the sequence LAMVIIKEFVDDLKKDH [DSN1] have recorded protein stability index that is 2 or more?
output: Criterion met

input: Does the sequence NAPAWFKLSSESVIEQI [RPS13] have recorded protein stability index that is 2 or more?
output: Criterion not met

input: Does the sequence MAVGKNKRLSKGKKGQK [RPS1A] have recorded protein stability index that is 2 or more?
output: Criterion not met

input: Does the sequence AELNLPTVDEQRQYKVQ [SNF11] have recorded protein stability index that is 2 or more?
output: Criterion met

input: Does the sequence VSFNGFKLPKKFPPPTP [BRR2] have recorded protein stability index that is 2 or more?
output: Criterion met

input: Does the sequence GSELSSKIRKIHIQETQ [SIR3] have recorded protein stability index that is 2 or more?
output: Criterion met

* * *

Experiment: protein stability index of a GFP-peptide fusion (yeast GPS) (PSI 1-4); higher = more stable; sorted into four equal gates, so the index is relative within each strain
Details: pdr5∆
Assignment: determine reported protein stability index for the given sequences.
API doc: respond with a numeric literal and nothing else, no unit.

input: # query: protein stability index of entry SPIVNVLEDVYRCFAQL [RRI2]
output: 3.19

input: # query: protein stability index of entry ADSAVNRQTLMFTATMT [PRP28]
output: 2.72

input: # query: protein stability index of entry PNEHPGAKYVIRDSGDR [RPO21]
output: 3.1

input: # query: protein stability index of entry QDREITNWARTTFRNEY [MED8]
output: 2.07

input: # query: protein stability index of entry KVVNGNSADAAYAQVEI [FAS2]
output: 2.67

input: # query: protein stability index of entry TRVRLPSGAKKVISSDA [RPL2A]
output: 3.27

input: # query: protein stability index of entry LLLKKIIKDYVLDIVPG [SRB4]
output: 2.52

input: # query: protein stability index of entry LEKCEAEFKKRKIEAET [YCS4]
output: 3.17

input: # query: protein stability index of entry KLLLLRINSTDEDLHEF [SRB8]
output: 3.06

input: # query: protein stability index of entry PGYVDIVKTSSGNEMPP [RPS19A]
output: 2.86

input: # query: protein stability index of entry AIMSKSSLEELLLKDQQ [ECM29]
output: 2.93

input: # query: protein stability index of entry VASLVLARGHRVEKIPE [RPL4A]
output: 3.4

input: # query: protein stability index of entry INGWELTKAQKYLEQVL [RPL17A]
output: 3.44

input: # query: protein stability index of entry RGAWGKPHGLAARVDIG [RPL10]
output: 1.99

input: # query: protein stability index of entry LKNVEETQEIKENDTVM [ESC2]
output: 3

input: # query: protein stability index of entry VGPSEQNFAEEDDSSNS [REC8]
output: 2.62

input: # query: protein stability index of entry SKTGSVDTLHNKEGTLE [SSN2]
output: 3.14

input: # query: protein stability index of entry ARLPPRATNCRKRKCGH [RPL40A]
output: 3.3

input: # query: protein stability index of entry KERLTKEAAAIAEGKSK [RPL8B]
output: 2.33

input: # query: protein stability index of entry RAANQGALPPDLSLIVK [CYT1]
output: 3

input: # query: protein stability index of entry LNDPSLKIQFILSTTLD [SIN4]
output: 1.45

input: # query: protein stability index of entry RYLDNLKQEIDRGLSIK [SNU114]
output: 2.9

input: # query: protein stability index of entry FEGNVATKAINGCIFTL [PRP8]
output: 2.32

input: # query: protein stability index of entry PNLGPQLWLNSSGDFDD [GRR1]
output: 3.16

input: # query: protein stability index of entry EFKIEQNNEQNPIDPFN [YDL116W/NUP84]
output: 3.11

input: # query: protein stability index of entry YFFQLQIRSADEPMTTF [RPC11]
output: 2.91

input: # query: protein stability index of entry DAFRVHICGICGLMTVI [RPB2]
output: 1.43

input: # query: protein stability index of entry YGRKSFRNNKNDNYSSD [REC8]
output: 3.22

input: # query: protein stability index of entry VRWIETQDVFLKDFNTE [FAS2]
output: 3.06

input: # query: protein stability index of entry KKCHRLLWTPKKLEITS [RPR2]
output: 2.48

input: # query: protein stability index of entry HKQELQDLILDLKKKLN [SMC4]
output: 2.75

* * *

Experiment: protein stability index of a GFP-peptide fusion (yeast GPS) (PSI 1-4); higher = more stable; sorted into four equal gates, so the index is relative within each strain
Conditions: san1∆
quantity: protein stability index

input: # query: protein stability index of entry IDSSNLPLQAQQQLYGG [SWI1]
output: 2.75

input: # query: protein stability index of entry AALRTVKSLVDNMITGV [RPL9A]
output: 2.99

input: # query: protein stability index of entry EALVERRRAFKRSQKKH [RPB4]
output: 3.22

input: # query: protein stability index of entry LNQINGLNNDFLFQNIN [GRR1]
output: 2.01

input: # query: protein stability index of entry RFNAKVSMVKRAIDSLI [CDC53]
output: 2.17

input: # query: protein stability index of entry NLWKNIFLSKENSAVAA [COR1]
output: 2.01

input: # query: protein stability index of entry KVVNGNSADAAYAQVEI [FAS2]
output: 2.14

input: # query: protein stability index of entry FPGKPVDVQAPTDDKTL [YOR098C/NUP1]
output: 2.93

input: # query: protein stability index of entry YQELGSLQSSSQTQLEN [MED2]
output: 3.08

input: # query: protein stability index of entry MGPLSNIAQMIPGMSNM [SRP54]
output: 2.58

input: # query: protein stability index of entry TKTEALLSDVVSTSSGA [YJL041W/NSP1]
output: 2.75

input: # query: protein stability index of entry SNSDNCPEEFAESMCQE [SNF5]
output: 3.27

input: # query: protein stability index of entry VEIIDQKKVLIDGPKAG [RPL14A]
output: 2.91

input: # query: protein stability index of entry IRTILVNIHHLLNEYRP [MED7]
output: 1.65

input: # query: protein stability index of entry SSRLEFVKGISRDIKAL [YML103C/NUP188]
output: 1.99

input: # query: protein stability index of entry ENLEESFLSKHALYLAP [SSN2]
output: 3.26

input: # query: protein stability index of entry IIKMTIPYAAKLLFQEL [RET1]
output: 1.75

input: # query: protein stability index of entry LRSKLFQFKLLQSNSKL [SMC4]
output: 1.59

input: # query: protein stability index of entry THFLLNIYDQLRNKLIE [RRP6]
output: 2.38

input: # query: protein stability index of entry EWDMLNVEEEQIVPYIE [BRR2]
output: 3.02

input: # query: protein stability index of entry AGKWFDPVLDWRKSDRE [SIR4]
output: 2.71

input: # query: protein stability index of entry NLLPKKSAKATKASQEL [HTA1]
output: 3.17

input: # query: protein stability index of entry DLQLLYVESDEDDTQIV [IRR1]
output: 3.07

input: # query: protein stability index of entry PASDDILDNINHNGSAL [ITC1]
output: 3.06

input: # query: protein stability index of entry EVSMNSIFAMGLCGAGT [RPN1]
output: 1.49

input: # query: protein stability index of entry EDISKATHLPKDNVEHL [RPN9]
output: 3.12

input: # query: protein stability index of entry TRPQMPSRTRETATSER [GRR1]
output: 3.03

input: # query: protein stability index of entry KSLGGGAALKDIEIVRV [FAS2]
output: 3.17

input: # query: protein stability index of entry PNRLVKELQYDNEQNLE [PRE2]
output: 2.8

input: # query: protein stability index of entry DVNALKFNNTQRESQIG [SNF12]
output: 2.68

input: # query: protein stability index of entry TLGNALRYVIMKNPDVE [RPC19]
output: 2.46

input: # query: protein stability index of entry QNVTSETHSKKRKKEAN [ITC1]
output: 2.94

input: # query: protein stability index of entry KQYLSASFSLKNGDKPH [RPL6A]
output: 2.43

input: # query: protein stability index of entry PLGKILLKGDNITLITS [SME1]
output: 1.89

input: # query: protein stability index of entry SPHYNSQKQTLIKKPLT [SSN3]
output: 2.46

input: # query: protein stability index of entry PWFWLLPLWHLLNRIPR [POP1]
output: 1.33

input: # query: protein stability index of entry KYSAITSSIFQESFNSV [NUT1]
output: 2.7

input: # query: protein stability index of entry KIDGNPDELIKAGVEAI [PRE5]
output: 3.29

input: # query: protein stability index of entry KKNRDKKIFGTGKRLAK [RPS24A]
output: 3.29

input: # query: protein stability index of entry QGDVEQIAAQSPVELSR [SMC1]
output: 3.08

input: # query: protein stability index of entry LKAKNQEEEGELEHLTK [DSN1]
output: 3.31

input: # query: protein stability index of entry LKIFKIFCIDLEVFHHF [SRB8]
output: 1.67

input: # query: protein stability index of entry VLKYMLLSKIMLNLIDD [RPN6]
output: 1.2

input: # query: protein stability index of entry VDEEDENGTHNDEVNED [YCG1]
output: 3.55

input: # query: protein stability index of entry EEIRSQIDHFKSMLSKP [SWI3]
output: 2.67

input: # query: protein stability index of entry ANNNINSASSAPTPAAP [SWI1]
output: 3.05

input: # query: protein stability index of entry IQVAAFIYGMSAKDHPK [PRP8]
output: 3.19

input: # query: protein stability index of entry MKFQESLKKVDEIKAQR [SMC4]
output: 3.34

input: # query: protein stability index of entry YKLVNKNKENNTFTWNH [RPN4]
output: 3.09

input: # query: protein stability index of entry VWNYTFMGTAFNQEGDY [PRP8]
output: 2.73

input: # query: protein stability index of entry FITKHLPLLILENSSRS [NUT1]
output: 1.12

input: # query: protein stability index of entry KEKEKEREEAEKKRAEQ [MED2]
output: 2.75

input: # query: protein stability index of entry LPLISTDVLEISKQRTF [YMR129W/POM152]
output: 2.46

input: # query: protein stability index of entry TQPKSSSSMDMQANTNA [SSN3]
output: 3.13

input: # query: protein stability index of entry TKLRAFVYNKVNETEAI [YGR119C/NUP57]
output: 2.68

input: # query: protein stability index of entry SDSIEKIVEIDRHIGCA [PUP2]
output: 2.74

input: # query: protein stability index of entry NWRSFNAKIIDAEVAQF [SRP68]
output: 2.01

input: # query: protein stability index of entry HLLVQLQKNDVYAFKAK [REC8]
output: 2.73

input: # query: protein stability index of entry GTSLTIQHIAAAMVPFI [CDC53]
output: 2.6

input: # query: protein stability index of entry NVTGGKAANFIQNQSPQ [SWI1]
output: 2.87

input: # query: protein stability index of entry VEASRRRRSSTNKSKRP [MED1]
output: 3.22
